Source of measurements: patent US20220332795A1

Target: T1, CD71 apical domain (UniProt P02786 189-383, limits assumed)
T1 construct: domain: Apical domain
T1 sequence (P02786 189-383 limits assumed): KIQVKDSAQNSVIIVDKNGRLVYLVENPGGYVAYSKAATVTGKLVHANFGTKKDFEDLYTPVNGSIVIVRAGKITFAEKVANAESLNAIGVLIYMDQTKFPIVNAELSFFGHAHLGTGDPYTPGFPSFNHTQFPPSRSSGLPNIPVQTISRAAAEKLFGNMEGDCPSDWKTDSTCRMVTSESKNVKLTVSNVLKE
Assay: solution ELISA, signal ratio to HSA
Quick reference for apical domain:HSA among some binders
measurement_type: apical domain:HSA

INSERT INTO measurements (binder, recorded_measurement) VALUES
  ('SEQ ID NO 120 (designed binder, FN3 domain) MLPAPKNLVVSRVTEDSARLSWTAPDAAFDSFYIAYAEPRPDGEAIHLSVPGSERSYDLTGLKPGTEYSVLIHGVKGGLLSSPLVAIFTT', 487),
  ('SEQ ID NO 151 (designed binder, FN3 domain) MLPAPKNLVVSRVTEDSARLSWTAPDAAFDSFFIGYLEPQPPGEAIQLWVPGSERSYDLTGLKPGTEYNVTIQGVKGGFPSRPLQAHFTT', 149),
  ('SEQ ID NO 109 (designed binder, FN3 domain) MLPAPKNLVVSRVTEDSARLSWTAPDAAFDSFHISYEEDYTFGEAIYLRVPGSERSYDLTGLKPGTEYRVVIGGVKGGWFSEPLLAAFTT', 0.7),
  ('SEQ ID NO 119 (designed binder, FN3 domain) MLPAPKNLVVSRVTEDSARLSWTAPDAAFDSFYIAYAEPRPDGEAINLDVPGSERSYDLTGLKPGTEYSVLIHGVKGGLLSSPLVAEFTT', 228),
  ('SEQ ID NO 197 (designed binder, FN3 domain) MLPAPKNLVVSRVTEDSARLSWTAPDAAFDSFYIAYAEPRPDGEAIKLDVPGSERSYDLTGLKPGTEYSVLIHGVKGGLLSSPLVAFFTT', 144),
  ('SEQ ID NO 117 (designed binder, FN3 domain) MLPAPKNLVVSRVTEDSARLSWTAPDAAFDSFYIAYAEPRPDGEAITLDVPGSERSYDLTGLKPGTEYSVLIHGVKGGLLSSPLSAIFTT', 312),
  ('SEQ ID NO 198 (designed binder, FN3 domain) MLPAPKNLVVSRVTEDSARLSWTAPDAAFDSFYIAYAEPRPDGEAIILEVPGSERSYDLTGLKPGTEYSVLIHGVKGGLLSSPLVAYFTT', 342),
  ('SEQ ID NO 175 (designed binder, FN3 domain) MLPAPKNLVVSRVTEDSARLSWTAPDAAFDSFRISYCETFYHGEAIVLTVPGSERSYDLTGLKPGTEYSVLIHGVKGGLLSSPLIAKFTT', 519),
  ('SEQ ID NO 111 (designed binder, FN3 domain) MLPAPKNLVVSRVTEDSARLSWTAPDAAFDSFFIGYLEPQPPGEAIDLGVPGSERSYDLTGLKPGTEYNVTIQGVKGGFPSMPLDPLEAYFTT', 0.8),
  ('SEQ ID NO 124 (designed binder, FN3 domain) MLPAPKNLVVSRVTEDSARLSWTAPDAAFDSFYIAYAEPRPDGEAIQLHVPGSERSYDLTGLKPGTEYSVLIHGVKGGLLSSPLLASFTT', 224),
  ('SEQ ID NO 131 (designed binder, FN3 domain) MLPAPKNLVVSRVTEDSARLSWTAPDAAFDSFYIAYAEPRPDGEAIHLWVPGSERSYDLTGLKPGTEYSVLIHGVKGGLLSSPLIAHFTT', 269),
  ('SEQ ID NO 104 (designed binder, FN3 domain) MLPAPKNLVVSRVTEDSARLSWTAPDAAFDSFYIAYAEPRPDGEAISLLVPGSERSYDLTGLKPGTEYSVLIHGVKGGLLSSPLYAVFTT', 559),
  ('SEQ ID NO 160 (designed binder, FN3 domain) MLPAPKNLVVSRVTEDSARLSWTAPDAAFDSFYIAYAEPRPDGEAIVLTVPGSERSYDLTGLKPGTEYSVLIHGVKGGLLSSPLLAYFTT', 378),
  ('SEQ ID NO 106 (designed binder, FN3 domain) MLPAPKNLVVSRVTEDSARLSWTAPDAAFDSFYIAYAEPRPDGEAILLDVPGSERSYDLTGLKPGTEYSVLIHGVKGGLLSSPLYASFTT', 176),
  ('SEQ ID NO 107 (designed binder, FN3 domain) MSLPAPKNLVVSRVTEDSARLSWTAPDAAFDSFYIAYAEPRPDGEAISLYVPGSERSYDLTGLKPGTEYSVLIHGVKGGLLSSPLSAISTT', 95.8),
  ('SEQ ID NO 116 (designed binder, FN3 domain) MLPAPKNLVVSRVTEDSARLSWTAPDAAFDSFYIAYAEPRPDGEAIQLVVPGSERSYDLTGLKPGTEYSVLIHGVKGGLLSSPLSAIFTT', 427),
  ('SEQ ID NO 122 (designed binder, FN3 domain) MLPAPKNLVVSRVTEDSARLSWTAPDAAFDSFYIAYAEPRPDGEAIILVVPGSERSYDLTGLKPGTEYSVLIHGVKGGLLSSPLSAHFTT', 592),
  ('SEQ ID NO 152 (designed binder, FN3 domain) MLPAPKNLVVSRVTEDSARLSWTAPDAAFDSFYIAYAEPRPDGEAITLDVPGSERSYDLTGLKPGTEYSVLIHGVKGGLLSSPLYAFFTT', 359);
